assayOverview: Cytotoxicity against human HCT-116 cells assessed as cell viability up to 50 uM incubated for 24 hrs by CCK8 assay relative to control
Type: cell-based
conditionSet: read-out: Activity
quantity: viability at 24 h (%)

smilesnotation=CN(C)c1ccc2c(c1)Sc1cc(N(C)C)ccc1N2c1ccc([N+](=O)[O-])c2nonc12 obsvalue=64

###

assayOverview: Cytotoxicity against human HCT-116 cells assessed as cell viability at 10 uM incubated for 24 hrs by CCK8 assay relative to control
Type: cell-based
conditionSet: read-out: Activity
quantity: viability at 24 h, 10 µM

smilesnotation=CN(C)c1ccc2c(c1)Sc1cc(N(C)C)ccc1N2c1ccc([N+](=O)[O-])c2nonc12 obsvalue="> 85%"
